Biological target: UniProtKB P11712
ENDPOINT_LABEL: pIC50
Note on pIC50: it is the negative log10 of concentration, concentration in mol/L.

Query: Bench note: what pIC50 did COc1ccc(-n2nccc2NS(=O)(=O)c2ccc(N)cc2)cc1 show?
Reply: 4.94

----------
Target: CYP2C9 (Homo sapiens, UniProt P11712)
Sequence (P11712 whole entry): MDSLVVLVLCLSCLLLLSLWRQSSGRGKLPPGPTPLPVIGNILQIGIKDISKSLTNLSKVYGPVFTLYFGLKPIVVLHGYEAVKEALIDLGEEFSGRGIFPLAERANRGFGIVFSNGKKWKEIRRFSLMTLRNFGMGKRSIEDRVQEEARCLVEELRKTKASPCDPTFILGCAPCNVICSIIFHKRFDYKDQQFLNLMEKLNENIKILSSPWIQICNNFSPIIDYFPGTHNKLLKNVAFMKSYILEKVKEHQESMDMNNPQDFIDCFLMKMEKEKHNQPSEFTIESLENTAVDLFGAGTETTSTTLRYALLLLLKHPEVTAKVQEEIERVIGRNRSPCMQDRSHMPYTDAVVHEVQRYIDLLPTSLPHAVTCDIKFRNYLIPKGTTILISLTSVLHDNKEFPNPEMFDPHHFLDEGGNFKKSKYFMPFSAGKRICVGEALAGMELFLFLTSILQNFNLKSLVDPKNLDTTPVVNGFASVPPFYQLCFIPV
Assay: Inhibition of CYP2C9 (unknown origin) at 0.5 uM relative to control
Assay type: ADME
The following compounds are listed with their measured inhibition at 0.5 µM values.
Note: a bare number is incomplete; add the unit.

These recorded examples may help you get a feel for the data.
Nc1ccc(S(=O)(=O)Nc2ccnn2-c2ccccc2)cc1 :: 48.3%
O=C(c1ccc(S(=O)(=O)Nc2ccnn2-c2ccccc2)cc1)N1CCCCC1 :: 0.2%
Nc1ccc(S(=O)(=O)Nc2nc3ccccc3s2)cc1 :: 4.8%

Query: Quick one: inhibition at 0.5 µM for COc1ccc(-n2nccc2NS(=O)(=O)c2ccc(N)cc2)cc1 ?
Reply: 9.1%

Query: Given the entry Cc1ccc(-c2ccc(-n3nccc3NS(=O)(=O)c3ccc(N)cc3)cc2)cc1 , report its measured inhibition at 0.5 µM.
Reply: 2.2%

Query: Value lookup for inhibition at 0.5 µM; key = Nc1ccc(S(=O)(=O)Nc2ccnn2-c2ccc(F)cc2)cc1
Reply: 45.7%

Query: Look at this compound and give its reported inhibition at 0.5 µM. Cc1ccc(-n2nccc2NS(=O)(=O)c2ccc(N)cc2)cc1
Reply: 52.3%

Query: What does the record list as inhibition at 0.5 µM for Cc1cc(NS(=O)(=O)c2ccc(N)cc2)n(-c2ccccc2)n1 ?
Reply: 45%

Ref: ChEMBL document CHEMBL4732257
